Data provenance: ChEMBL document CHEMBL1649418

Molecular target: Adenosine receptor A2b (Homo sapiens) (UniProt P29275)
Sequence (P29275 whole entry): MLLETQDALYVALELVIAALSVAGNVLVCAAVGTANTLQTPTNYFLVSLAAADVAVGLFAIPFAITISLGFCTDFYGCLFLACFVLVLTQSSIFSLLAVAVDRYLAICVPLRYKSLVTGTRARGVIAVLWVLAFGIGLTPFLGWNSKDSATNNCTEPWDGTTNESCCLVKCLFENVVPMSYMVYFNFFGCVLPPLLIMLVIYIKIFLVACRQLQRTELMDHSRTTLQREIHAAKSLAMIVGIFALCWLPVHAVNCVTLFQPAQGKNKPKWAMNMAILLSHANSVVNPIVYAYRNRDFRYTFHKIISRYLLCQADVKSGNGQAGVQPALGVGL
Test: Displacement of [3H]DPCPX from human adenosine A2B receptor expressed in HEK293 cells at 0.1 uM by liquid scintillation counting
Assay type: cell-based
Measurement type: inhibition

{"columns": ["Cpd smiles", "Measurement type", "Meas value"],
 "data": [
  ["CCCC(=O)Nc1nc(-c2ccc(SC)cc2)cc(-c2ccc(SC)cc2)n1", "inhibition", "2%"],
  ["CCCC(=O)Nc1cc(-c2ccccc2OC)nc(-c2ccccc2OC)n1", "inhibition", "3%"],
  ["CCC(=O)Nc1cc(-c2ccccc2OC)nc(-c2ccccc2OC)n1", "inhibition", "7%"],
  ["CC(=O)Nc1nc(-c2ccco2)cc(-c2ccco2)n1", "inhibition", "11%"],
  ["CCC(=O)Nc1nc(-c2ccco2)cc(-c2ccco2)n1", "inhibition", "21%"],
  ["COc1ccc(-c2cc(-c3ccc(OC)cc3)nc(NC(C)=O)n2)cc1", "inhibition", "1%"],
  ["CCC(CC)C(=O)Nc1cc(-c2ccc(OC)cc2OC)nc(-c2ccc(OC)cc2OC)n1", "inhibition", "2%"],
  ["CCCC(=O)Nc1nc(-c2ccc3c(c2)OCO3)cc(-c2ccc3c(c2)OCO3)n1", "inhibition", "1%"],
  ["CCC(=O)Nc1nc(-c2ccc(Cl)cc2)cc(-c2ccc(Cl)cc2)n1", "inhibition", "2%"],
  ["CCCC(=O)Nc1nc(-c2ccsc2)cc(-c2ccsc2)n1", "inhibition", "12%"],
  ["CCCC(=O)Nc1nc(-c2ccoc2)cc(-c2ccoc2)n1", "inhibition", "0%"],
  ["CC(=O)Nc1cc(-c2ccccc2F)nc(-c2ccccc2F)n1", "inhibition", "21%"],
  ["CCC(=O)Nc1nc(-c2ccc(OC)cc2OC)cc(-c2ccc(OC)cc2OC)n1", "inhibition", "3%"],
  ["COc1ccccc1-c1cc(-c2ccccc2OC)nc(NC(C)=O)n1", "inhibition", "1%"],
  ["COc1ccc(-c2cc(NC(=O)C3CCCCC3)nc(-c3ccc(OC)cc3)n2)cc1", "inhibition", "1%"],
  ["CCC(=O)Nc1nc(-c2ccc(C(C)=O)cc2)cc(-c2ccc(C(C)=O)cc2)n1", "inhibition", "1%"],
  ["CCCC(=O)Nc1cc(-c2ccccc2F)nc(-c2ccccc2F)n1", "inhibition", "9%"],
  ["CC(=O)Nc1nc(-c2ccsc2)cc(-c2ccsc2)n1", "inhibition", "1%"],
  ["CCC(=O)Nc1nc(-c2ccc3c(c2)OCO3)cc(-c2ccc3c(c2)OCO3)n1", "inhibition", "1%"],
  ["CCCC(=O)Nc1cc(-c2ccc(C(F)(F)F)cc2)nc(-c2ccc(C(F)(F)F)cc2)n1", "inhibition", "6%"],
  ["CC(=O)Nc1cc(-c2ccc(C(F)(F)F)cc2)nc(-c2ccc(C(F)(F)F)cc2)n1", "inhibition", "1%"],
  ["CCCC(=O)Nc1cc(-c2ccc(OC)cc2OC)nc(-c2ccc(OC)cc2OC)n1", "inhibition", "14%"],
  ["COc1ccccc1-c1cc(NC(C)=O)nc(-c2ccccc2OC)n1", "inhibition", "1%"],
  ["CCC(=O)Nc1cc(-c2ccccc2F)nc(-c2ccccc2F)n1", "inhibition", "16%"],
  ["CCCC(=O)Nc1cc(/C=C/c2ccccc2)nc(/C=C/c2ccccc2)n1", "inhibition", "8%"],
  ["CCC(=O)Nc1nc(-c2ccccc2OC)cc(-c2ccccc2OC)n1", "inhibition", "2%"],
  ["CCCC(=O)Nc1nc(-c2ccc(OC)cc2)cc(-c2ccc(OC)cc2)n1", "inhibition", "9%"],
  ["CC(=O)Nc1cc(-c2ccccc2)nc(-c2ccccc2)n1", "inhibition", "19%"],
  ["CCCC(=O)Nc1cc(-c2ccc3c(c2)OCO3)nc(-c2ccc3c(c2)OCO3)n1", "inhibition", "16%"],
  ["CCCC(=O)Nc1nc(-c2ccccc2OC)cc(-c2ccccc2OC)n1", "inhibition", "1%"],
  ["CCCC(=O)Nc1cc(-c2ccc(C)cc2)nc(-c2ccc(C)cc2)n1", "inhibition", "3%"],
  ["COc1ccc(-c2cc(NC(C)=O)nc(-c3ccc(OC)cc3OC)n2)c(OC)c1", "inhibition", "2%"],
  ["CC(=O)Nc1nc(-c2ccc(Cl)cc2)cc(-c2ccc(Cl)cc2)n1", "inhibition", "1%"],
  ["CCC(=O)Nc1cc(-c2ccc(Cl)cc2)nc(-c2ccc(Cl)cc2)n1", "inhibition", "3%"],
  ["CCCC(=O)Nc1cc(-c2ccc(Cl)cc2)nc(-c2ccc(Cl)cc2)n1", "inhibition", "1%"],
  ["CCCC(=O)Nc1cc(-c2ccsc2)nc(-c2ccsc2)n1", "inhibition", "21%"],
  ["CC(=O)Nc1cc(/C=C/c2ccccc2)nc(/C=C/c2ccccc2)n1", "inhibition", "1%"]
]}

###

Biological target: Adenosine receptor A1 (Homo sapiens)
Sequence (P30542 whole entry): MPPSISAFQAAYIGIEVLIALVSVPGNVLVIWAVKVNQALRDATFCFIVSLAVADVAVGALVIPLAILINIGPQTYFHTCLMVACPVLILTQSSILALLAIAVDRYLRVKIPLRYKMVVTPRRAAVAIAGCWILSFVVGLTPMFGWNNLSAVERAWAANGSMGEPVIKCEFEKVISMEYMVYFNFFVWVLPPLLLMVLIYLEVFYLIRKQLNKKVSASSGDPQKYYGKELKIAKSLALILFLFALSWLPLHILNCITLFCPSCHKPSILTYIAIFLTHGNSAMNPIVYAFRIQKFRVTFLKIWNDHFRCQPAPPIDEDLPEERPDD
Assay: Displacement of [3H]DPCPX from human adenosine A1 receptor expressed in CHO cells by liquid scintillation counting
Type: cell-based

{"columns": ["Cpd smiles", "Unit spec", "Ki"],
 "data": [
  ["CCC(=O)Nc1nc(-c2ccccc2)cc(-c2ccccc2)n1", "nM", 31.3],
  ["CCCC(=O)Nc1cc(-c2ccco2)nc(-c2ccco2)n1", "nM", 7.8],
  ["CCCC(=O)Nc1nc(-c2ccccc2F)cc(-c2ccccc2F)n1", "nM", 23.5],
  ["CCC(=O)Nc1nc(-c2ccccc2F)cc(-c2ccccc2F)n1", "nM", 48.2],
  ["O=C(Nc1nc(-c2ccccc2)cc(-c2ccccc2)n1)C1CCCC1", "nM", 2.14],
  ["CCCC(=O)Nc1cc(-c2ccoc2)nc(-c2ccoc2)n1", "nM", 65.1],
  ["CCCC(=O)Nc1nc(-c2ccsc2)cc(-c2ccsc2)n1", "nM", 85.7],
  ["CCCC(=O)Nc1cc(-c2ccccc2OC)nc(-c2ccccc2OC)n1", "nM", 41.3],
  ["CCCC(=O)Nc1cc(-c2ccsc2)nc(-c2ccsc2)n1", "nM", 65.1],
  ["CCCC(=O)Nc1cc(-c2ccc(F)cc2)nc(-c2ccc(F)cc2)n1", "nM", 82.3],
  ["CCC(=O)Nc1cc(-c2ccc(C)cc2)nc(-c2ccc(C)cc2)n1", "nM", 36.9],
  ["CCCC(=O)Nc1nc(-c2ccc(C)cc2)cc(-c2ccc(C)cc2)n1", "nM", 3760],
  ["CC(=O)Nc1cc(-c2ccccc2)nc(-c2ccccc2)n1", "nM", 31.2],
  ["CCC(=O)Nc1cc(-c2ccccc2F)nc(-c2ccccc2F)n1", "nM", 31.6],
  ["CCC(=O)Nc1cc(-c2ccc(F)cc2)nc(-c2ccc(F)cc2)n1", "nM", 83.9],
  ["CCC(=O)Nc1cc(-c2ccc3c(c2)OCO3)nc(-c2ccc3c(c2)OCO3)n1", "nM", 5.28],
  ["CCC(=O)Nc1cc(-c2ccccc2)nc(-c2ccccc2)n1", "nM", 22.3],
  ["CCC(=O)Nc1nc(-c2ccsc2)cc(-c2ccsc2)n1", "nM", 367]
]}

###

Entries with reported Ki on UniProt:P29274
Sequence (P29274 whole entry): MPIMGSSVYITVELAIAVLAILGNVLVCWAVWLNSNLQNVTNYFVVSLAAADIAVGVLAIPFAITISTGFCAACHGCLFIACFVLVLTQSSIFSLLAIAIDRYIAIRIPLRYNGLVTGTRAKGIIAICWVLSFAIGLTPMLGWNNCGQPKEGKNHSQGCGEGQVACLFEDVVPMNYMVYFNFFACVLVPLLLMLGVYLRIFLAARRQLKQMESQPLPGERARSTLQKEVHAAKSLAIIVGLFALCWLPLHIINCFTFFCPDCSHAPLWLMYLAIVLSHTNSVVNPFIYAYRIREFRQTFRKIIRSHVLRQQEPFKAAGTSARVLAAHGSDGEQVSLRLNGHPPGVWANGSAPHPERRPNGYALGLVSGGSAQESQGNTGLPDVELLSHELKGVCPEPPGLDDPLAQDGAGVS
Measurement type: Ki (nM)

{"columns": ["Cpd smiles", "Experimental system", "Meas value"],
 "data": [
  ["CCC(=O)Nc1nc(-c2ccccc2)cc(-c2ccccc2)n1", "UniProt:P29274", 554],
  ["CCCC(=O)Nc1nc(-c2ccccc2F)cc(-c2ccccc2F)n1", "UniProt:P29274", 647],
  ["CCC(=O)Nc1nc(-c2ccccc2F)cc(-c2ccccc2F)n1", "UniProt:P29274", 424],
  ["CC(=O)Nc1cc(-c2ccccc2F)nc(-c2ccccc2F)n1", "UniProt:P29274", 73.8],
  ["CCCC(=O)Nc1cc(-c2ccco2)nc(-c2ccco2)n1", "UniProt:P29274", 5.7],
  ["CCCC(=O)Nc1cc(-c2ccccc2)nc(-c2ccccc2)n1", "UniProt:P29274", 103],
  ["O=C(Nc1nc(-c2ccccc2)cc(-c2ccccc2)n1)C1CCCC1", "UniProt:P29274", 196],
  ["CCCC(=O)Nc1cc(-c2ccoc2)nc(-c2ccoc2)n1", "UniProt:P29274", 544],
  ["CCCC(=O)Nc1cc(-c2ccc(F)cc2)nc(-c2ccc(F)cc2)n1", "UniProt:P29274", 1830],
  ["CCC(=O)Nc1cc(-c2ccc(F)cc2)nc(-c2ccc(F)cc2)n1", "UniProt:P29274", 429],
  ["CCCC(=O)Nc1nc(-c2ccsc2)cc(-c2ccsc2)n1", "UniProt:P29274", 4570]
]}

###

Biological target: Adenosine receptor A3 (Homo sapiens, UniProt P0DMS8)
Sequence (P0DMS8 whole entry): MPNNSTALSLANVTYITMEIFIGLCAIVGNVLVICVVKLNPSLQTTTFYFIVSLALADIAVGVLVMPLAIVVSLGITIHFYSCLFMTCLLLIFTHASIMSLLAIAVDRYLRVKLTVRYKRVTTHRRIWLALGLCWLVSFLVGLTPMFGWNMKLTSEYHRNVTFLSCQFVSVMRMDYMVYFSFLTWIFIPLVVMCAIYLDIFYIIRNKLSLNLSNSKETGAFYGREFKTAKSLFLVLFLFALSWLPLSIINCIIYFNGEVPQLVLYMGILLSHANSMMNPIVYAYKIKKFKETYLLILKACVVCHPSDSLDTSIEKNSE
Experiment: Displacement of [3H]NECA from human adenosine A3 receptor expressed in human HeLa cells by liquid scintillation counting
Type: cell-based
Conditions: read-out: Ki
Each item that follows carries a reported Ki.

{"columns": ["Cpd smiles", "Ki, nM"],
 "data": [
  ["CSc1ccc(-c2cc(NC(C)=O)nc(-c3ccc(SC)cc3)n2)cc1", 71.3],
  ["CCCC(=O)Nc1cc(-c2ccccc2F)nc(-c2ccccc2F)n1", 135],
  ["CCC(=O)Nc1nc(-c2ccco2)cc(-c2ccco2)n1", 1900],
  ["CCC(=O)Nc1cc(-c2cccs2)nc(-c2cccs2)n1", 21.8],
  ["CCC(CC)C(=O)Nc1cc(-c2ccc(OC)cc2)nc(-c2ccc(OC)cc2)n1", 58.1],
  ["COc1ccc(-c2cc(NC(=O)C3CCCCC3)nc(-c3ccc(OC)cc3)n2)cc1", 32.1]
]}
